B1: LINE1-full (parent)
chain: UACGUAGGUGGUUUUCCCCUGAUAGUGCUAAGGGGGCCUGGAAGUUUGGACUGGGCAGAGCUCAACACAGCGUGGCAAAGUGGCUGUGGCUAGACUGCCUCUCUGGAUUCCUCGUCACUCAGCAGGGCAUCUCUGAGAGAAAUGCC

Variants of: B1
protocol-description: self-cleavage, relative activity (ratio to wild type); higher = more cleavage; in vitro, sequencing; the parent is a self-cleaving ribozyme
// thresholds for self-cleavage classes: band 1 (below 0.3), band 2 (0.3 to below 1), band 3 (1 or more)

U62C A140U | band 1
U47C A140G | band 3
U26C U112A | band 3

Pick a category. Item: G33A A43G
band 3

Pick a category. Item: U130A A138G
band 3

Pick a category. Item: U73C C90G
band 1

Pick a category. Item: G49A A59G
band 1

Pick a category. Item: A2U A42U
band 2

Pick a category. Item: G10A A67G
band 2

Pick a category. Item: U15C A92G
band 1

Pick a category. Item: A65G A129U
band 1

Pick a category. Item: G36C A64C
band 2
